Each entry below lists one item and its recorded polymerase ribozyme fitness (log ratio) value.
B1: TPR 5TU (parent)
chain: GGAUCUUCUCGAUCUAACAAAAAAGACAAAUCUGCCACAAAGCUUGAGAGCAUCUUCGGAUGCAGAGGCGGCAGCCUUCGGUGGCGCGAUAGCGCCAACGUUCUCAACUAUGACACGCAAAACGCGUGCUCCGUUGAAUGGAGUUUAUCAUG

# Variants of: B1
# test summary: polymerase ribozyme fitness, log enrichment relative to wild type (log ratio); higher = more active; in vitro selection for triplet polymerase activity
Fewer inactive variants are shown than the library holds.
parameter: polymerase ribozyme fitness (log ratio)

mutant_code="G50U A73U C87U" parameter="polymerase ribozyme fitness (log ratio)" qualifying_sign== number=-2.26
mutant_code="A60U A91G G141A U145G" parameter="polymerase ribozyme fitness (log ratio)" qualifying_sign== number=-3.98
mutant_code="C18A A26U G84A A138G" parameter="polymerase ribozyme fitness (log ratio)" qualifying_sign=≤ number=-4.2
mutant_code="A19U A20U C85U" parameter="polymerase ribozyme fitness (log ratio)" qualifying_sign== number=-2.59
mutant_code="A122U G141C" parameter="polymerase ribozyme fitness (log ratio)" qualifying_sign== number=0.115
mutant_code="A20U A52G G58A C76G G81A G86A A122C" parameter="polymerase ribozyme fitness (log ratio)" qualifying_sign=≤ number=-4.2
mutant_code="G71A C87A G92C" parameter="polymerase ribozyme fitness (log ratio)" qualifying_sign== number=-3.04
mutant_code="A29G A41C" parameter="polymerase ribozyme fitness (log ratio)" qualifying_sign== number=-3.63
mutant_code="A89C C123A G128U" parameter="polymerase ribozyme fitness (log ratio)" qualifying_sign== number=-3.31
mutant_code="C85A G140A" parameter="polymerase ribozyme fitness (log ratio)" qualifying_sign== number=-4.18
mutant_code="A20G C57G A66C G94A C132U" parameter="polymerase ribozyme fitness (log ratio)" qualifying_sign=≤ number=-4.2
mutant_code="A40U G50C C85G C99U A137U U148G" parameter="polymerase ribozyme fitness (log ratio)" qualifying_sign=≤ number=-4.2
mutant_code="C27G U33C G68U" parameter="polymerase ribozyme fitness (log ratio)" qualifying_sign=≤ number=-4.2
mutant_code="A49G G58A" parameter="polymerase ribozyme fitness (log ratio)" qualifying_sign== number=-0.296
mutant_code="A28C C43U U56A A107C" parameter="polymerase ribozyme fitness (log ratio)" qualifying_sign=≤ number=-4.2
mutant_code="A28U A41U C79G G86A G136A G152A" parameter="polymerase ribozyme fitness (log ratio)" qualifying_sign=≤ number=-4.2
mutant_code="A91C C96A A120U A122C G143U" parameter="polymerase ribozyme fitness (log ratio)" qualifying_sign== number=-4.07
mutant_code="G58C C63U A120C" parameter="polymerase ribozyme fitness (log ratio)" qualifying_sign== number=-0.534
mutant_code="C63U U148C" parameter="polymerase ribozyme fitness (log ratio)" qualifying_sign== number=-1.65
mutant_code="C72A C114A" parameter="polymerase ribozyme fitness (log ratio)" qualifying_sign=≤ number=-4.2
mutant_code="C10G A89C U148C" parameter="polymerase ribozyme fitness (log ratio)" qualifying_sign=≤ number=-4.2
mutant_code="G58A C75G C125G C129A U151G" parameter="polymerase ribozyme fitness (log ratio)" qualifying_sign=≤ number=-4.2
